- EXPERIMENTAL_TARGET: ER-α (Homo sapiens, UniProt P03372)
- Sequence (P03372 1-595): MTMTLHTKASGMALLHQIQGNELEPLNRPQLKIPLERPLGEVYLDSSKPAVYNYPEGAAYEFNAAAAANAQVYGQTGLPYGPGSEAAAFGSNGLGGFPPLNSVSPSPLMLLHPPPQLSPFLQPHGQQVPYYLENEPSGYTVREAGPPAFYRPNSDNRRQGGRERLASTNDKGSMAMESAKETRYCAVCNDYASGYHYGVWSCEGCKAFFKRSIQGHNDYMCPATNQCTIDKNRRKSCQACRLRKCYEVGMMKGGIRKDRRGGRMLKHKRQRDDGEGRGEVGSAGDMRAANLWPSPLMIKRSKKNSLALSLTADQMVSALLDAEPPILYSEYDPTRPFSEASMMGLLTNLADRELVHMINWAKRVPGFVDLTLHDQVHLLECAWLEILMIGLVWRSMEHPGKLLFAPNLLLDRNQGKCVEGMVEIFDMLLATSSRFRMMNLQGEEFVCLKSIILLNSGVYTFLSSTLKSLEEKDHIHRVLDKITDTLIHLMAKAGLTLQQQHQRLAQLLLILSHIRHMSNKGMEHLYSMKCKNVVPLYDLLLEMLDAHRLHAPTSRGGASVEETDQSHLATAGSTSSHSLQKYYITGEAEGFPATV
- TEST: Breast Cancer Cell ER-α In Cell Western Assay (SP1)
- Assay type: cell-based
- SETTINGS: MCF-7 cells, SP1 antibody, 4 or 24 hr post compound addition; read-out: ER-α In Cell Western Assay (SP1) IC50
Reported DC50 values for a set of compounds
PROPERTY_NAME: DC50

>>> result("CC/C(=C(/c1ccc(/C=C/C(=O)O)cc1)c1ccc2[nH]ncc2c1)c1ccc(Cl)cc1C#N")
"≤ 100 nM"
>>> result("O=C(O)/C=C/c1ccc(/C(=C(\\c2ccccc2)C2CCCC2)c2ccc3[nH]ncc3c2)cc1")
"≤ 100 nM"
>>> result("COC/C(=C(/c1ccc(/C=C/C(=O)O)cc1)c1ccc2[nH]ncc2c1)c1ccccc1")
"≤ 100 nM"
>>> result("CC/C(=C(/c1ccc(/C=C/C(=O)O)cc1)c1ccc2[nH]ncc2c1)c1ccc(F)cc1F")
"≤ 100 nM"
>>> result("O=C(O)/C=C/c1ccc(/C(=C(\\c2ccc(Cl)cc2Cl)C2CC2)c2ccc3[nH]ncc3c2)cc1")
"≤ 100 nM"

---

- EXPERIMENTAL_TARGET: ER-α (Homo sapiens)
- Sequence (P03372 1-595): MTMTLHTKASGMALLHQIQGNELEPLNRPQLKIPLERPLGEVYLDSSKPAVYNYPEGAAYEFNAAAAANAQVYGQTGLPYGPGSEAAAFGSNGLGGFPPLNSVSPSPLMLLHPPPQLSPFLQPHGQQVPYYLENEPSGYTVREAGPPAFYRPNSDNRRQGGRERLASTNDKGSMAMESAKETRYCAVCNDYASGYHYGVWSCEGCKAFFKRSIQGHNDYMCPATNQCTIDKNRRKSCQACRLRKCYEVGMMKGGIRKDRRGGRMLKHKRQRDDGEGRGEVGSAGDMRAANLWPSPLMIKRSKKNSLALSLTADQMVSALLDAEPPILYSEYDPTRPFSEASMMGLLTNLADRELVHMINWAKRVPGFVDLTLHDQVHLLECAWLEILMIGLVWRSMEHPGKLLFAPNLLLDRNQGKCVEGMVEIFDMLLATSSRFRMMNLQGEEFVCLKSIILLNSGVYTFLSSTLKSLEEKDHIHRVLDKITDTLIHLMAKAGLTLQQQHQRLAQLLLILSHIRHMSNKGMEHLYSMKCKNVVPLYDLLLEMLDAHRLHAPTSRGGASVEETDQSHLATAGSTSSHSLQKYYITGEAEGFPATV
- TEST: Breast Cancer Cell ER-α In Cell Western Assay (SP1)
- Type: cell-based
- SETTINGS: MCF-7 cells, SP1 antibody, 4 or 24 hr post compound addition; read-out: ER-α In Cell Western Assay (SP1) IC50
- Experimental: MCF-7 cells were adjusted to a concentration of 200,000 cells per mL in RPMI containing 10% charcoal-stripped FBS and 20 mM HEPES. […] Integrated intensities in the 800 nm channel and 700 nm channel were measured to determine levels of ER and DNA respectively. Percent ER levels were determined as follows: (Integrated intensity 800 nm sample/integrated intensity 700 nm sample)/(Integrated intensity 800 nm untreated cells/integrated intensity 700 nm untreated cells)×100=% ER levels.
PROPERTY_NAME: DC50

>>> result("CC/C(=C(/c1ccc(/C=C/C(=O)O)cc1)c1ccc2[nH]ncc2c1C)c1ccccc1")
"≤ 100 nM"
>>> result("CC/C(=C(/c1ccc(/C=C/C(=O)O)cc1)c1ccc2[nH]ncc2c1F)c1ccc(Cl)cc1C")
"≤ 100 nM"
>>> result("CC/C(=C(/c1ccc(/C=C/C(=O)O)cc1)c1ccc2[nH]ncc2c1)c1c(C)cccc1Cl")
"≤ 100 nM"
